Test system: TK-10 renal
assayNotes: NCI tumour cell line growth inhibition, 48 h
Each record here notes measured TGI.
readoutKind: TGI

molecule	valueObserved
COC1C(O)C(C)OC(O[C@@H]2C[C@H]3CC[C@@H]4[C@H](CC[C@]5(C)[C@@H](C6=CC(=O)OC6)CC[C@]45O)[C@@]3(C)[C@H](O)C2)C1O (some centres undefined)	0.896 µM
c1cc(C[S+]2CCCC2)oc1C[S+]1CCCC1	> 100 µM
COc1ccc(OC)c(/C=N/N=C2\C(=O)Nc3c(Cl)cc(Cl)cc32)c1	> 100 µM
CCOC(=O)c1cn(CC)c2cc3c(cc2c1=O)SCS3	> 100 µM
CCc1n[nH]c(=S)n1/N=C\c1ccc(-c2ccccc2[N+](=O)[O-])o1	> 100 µM
COc1ccccc1N1C(=O)CC(=O)N(C(=O)CCCCCCCCC(=O)N2C(=O)CC(=O)N(c3ccccc3OC)C2=S)C1=S	> 100 µM
O=C(Nc1ccc(S(=O)(=O)Nc2ncccn2)cc1)c1c2ccccc2nc2ccccc12	> 100 µM
CC(=O)Oc1cc(S(=O)(=O)Nc2n[nH]c(N)n2)c(S)cc1Cl	> 100 µM
O=C(CN1C(=O)S/C(=C\C(Cl)=C\c2ccccc2)C1=O)NCCCn1ccnc1	4.53 µM

These measurements were taken from PubChem BioAssay (NCI).
